Reference source: patent US20100105652A1

Provide the reported pIC50 of each item.
Molecular target: Falcipain-2 (Plasmodium falciparum)
Sequence (Q8I6U4 244-484): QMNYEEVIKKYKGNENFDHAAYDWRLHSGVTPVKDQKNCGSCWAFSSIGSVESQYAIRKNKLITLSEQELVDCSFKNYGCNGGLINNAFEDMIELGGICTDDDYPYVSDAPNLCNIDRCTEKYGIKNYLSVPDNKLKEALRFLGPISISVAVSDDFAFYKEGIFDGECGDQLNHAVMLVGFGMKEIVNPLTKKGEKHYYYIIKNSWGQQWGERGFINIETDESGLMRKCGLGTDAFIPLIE
Experiment: falcipain-2 enzymatic assay (fluorogenic substrate H-D-VLR-AFC, endpoint)
Details: parasitic recombinant enzyme, pH 5.5, quenched after 60 minutes
pIC50: −log10 of the molar value. Counter-ions that a name gives are not always drawn.

What does the record list as pIC50 for CN1CCN(Cc2ccc(-c3cccc(C(=O)NN(c4nc(C#N)nc5c4ncn5C)C4CCCC4)n3)cc2)CC1 [Example 28, trifluoroacetate] ?
7.82 to 8.60

GET /values?readout=pIC50&item= CN1CCN(C(=O)C2CCN(Cc3ccc(C(=O)NN(c4nc(C#N)nc5c4ncn5C)C4CCCC4)cc3)CC2)CC1 [Example 6, trifluoroacetate]
7.82 to 8.60

Consider the molecule shown here: CN1CCC(CN2CCN(Cc3ccc(C(=O)NN(c4nc(C#N)nc5c4ncn5C)C4CCCC4)cc3)CC2)CC1 [Example 5, trifluoroacetate] What is its recorded pIC50?
7.82 to 8.60

Name the reported pIC50 value associated with the molecule CN(C)CCn1cnc2c(N(CC3CCCC3)NC(=O)c3ccc(CN4CCN(C)CC4)cc3)nc(C#N)nc21 [Example 14, trifluoroacetate]
7.82 to 8.60

What does the record list as pIC50 for CN1CCN(Cc2ccc(C(=O)NN(c3nc(C#N)nc4[nH]cnc34)C3CCCCC3)cc2)CC1 [Example 30, trifluoroacetate] ?
7.82 to 8.60

pIC50 for CN1CCN(C(=O)n2cnc3c(N(NC(=O)OC(C)(C)C)C4CCCCC4)nc(C#N)nc32)CC1 [Example 35, trifluoroacetate] ?
≥ 9.00

Suppose we examine the molecule Cn1cnc2c(N(NC(=O)c3ccc(CN4CC(N5CCCC5)C4)cc3)C3CCCCC3)nc(C#N)nc21 [Example 11] ; what pIC50 value has been reported?
7.82 to 8.60

// lookup pIC50 for CN1CCN(c2cccc(C(=O)NN(c3nc(C#N)nc4c3ncn4C)C3CCCC3)c2)CC1 [Example 33, trifluoroacetate]
8.60 to 9.00

Bench note: what pIC50 did CN1CCCC(CN2CCN(Cc3ccc(C(=O)NN(CC4CCCC4)c4nc(C#N)nc5c4ncn5C)cc3)CC2)C1 (centres unmarked) [Example 3, trifluoroacetate] show?
7.82 to 8.60

Quick one: pIC50 for CC(C)CN(NC(=O)c1ccc(CN2CCN(C)CC2)cc1)c1nc(C#N)nc2c1ncn2C [Example 22] ?
6.82 to 7.82

Quick one: pIC50 for CN(C)CCCCNC(=O)n1cnc2c(N(NC(=O)OC(C)(C)C)C3CCCC3)nc(C#N)nc21 [Example 49, trifluoroacetate] ?
7.82 to 8.60

Return reported pIC50; argument: CN(C)CCn1cnc2c(N(CC3CCCC3)NC(=O)OC(C)(C)C)nc(C#N)nc21 [Example 13, trifluoroacetate]
≥ 9.00

Recorded pIC50 of CN(C)CCCn1cnc2c(N(NC(=O)c3cccc(-c4ccc(CN5CCN(C)CC5)cc4)n3)C3CCCCC3)nc(C#N)nc21 [Example 46, trifluoroacetate] , please.
7.82 to 8.60

Param item = CN1CCN(Cc2ccc(C(=O)NN(c3nc(C#N)nc4c3ncn4C(=O)N3CCN(C)CC3)C3CCCCC3)cc2)CC1 [Example 38, trifluoroacetate] ; retrieve measured pIC50.
≥ 9.00

Bench note: what pIC50 did CN1CCN(C2CCN(Cc3ccc(C(=O)NN(c4nc(C#N)nc5c4ncn5C)C4CCCCC4)cc3)CC2)CC1 [Example 8] show?
8.60 to 9.00

Fill in the blank: the reported pIC50 of CN1CCN(C2CCN(Cc3ccc(C(=O)NN(CC4CCCC4)c4nc(C#N)nc5c4ncn5C)cc3)CC2)CC1 [Example 1] is ____.
7.82 to 8.60

I am curious: what pIC50 value has been reported for CN(C)CCn1cnc2c(N(NC(=O)c3ccc(CN4CCN(C)CC4)cc3)C3CCCC3)nc(C#N)nc21 [Example 40, trifluoroacetate] ?
7.82 to 8.60

Endpoint output: pIC50 of CN1CCC(CN2CCN(Cc3ccc(C(=O)NN(c4nc(C#N)nc5c4ncn5C)C4CCCCC4)cc3)CC2)CC1 [Example 9, trifluoroacetate] . Value?
7.82 to 8.60

// query pIC50 value for entry CN1CCC(CN2CCN(Cc3ccc(C(=O)NN(CC4CCCC4)c4nc(C#N)nc5c4ncn5C)cc3)CC2)CC1 [Example 2, trifluoroacetate]
7.82 to 8.60

Entry CN(C)CCCN(C(=O)OC(C)(C)C)N(CC1CCCC1)c1nc(C#N)nc2c1ncn2CCCN(C)C [Example 16, trifluoroacetate] : reported pIC50 = ?
7.82 to 8.60

# input molecule: CC(C)(C)OC(=O)NN(CC1CCCC1)c1nc(C#N)nc2c1ncn2CCN1C(=O)c2ccccc2C1=O [Example 21] ; wanted: its pIC50
6.82 to 7.82

Value lookup for pIC50; key = CN(C)CCCn1cnc2c(N(NC(=O)OC(C)(C)C)C3CCOCC3)nc(C#N)nc21 [Example 19, trifluoroacetate]
7.82 to 8.60

Fill blank: measured pIC50 of the molecule CN1CCC(N2CCN(Cc3ccc(C(=O)NN(CC4CCCC4)c4nc(C#N)nc5c4ncn5C)cc3)CC2)CC1 [Example 18] is ____.
7.82 to 8.60

Which pIC50 reading was recorded for the molecule CN1CCN(Cc2ccc(C(=O)NN(c3nc(C#N)nc4c3ncn4C(=O)N3CCN(C)CC3)C3CCCC3)cc2)CC1 [Example 34, trifluoroacetate] ?
8.60 to 9.00

# lookup: pIC50 of CN1CCN(C2CCN(Cc3ccc(C(=O)NN(c4nc(C#N)nc5c4ncn5C)C4CCCC4)cc3)CC2)CC1 [Example 4]
7.82 to 8.60

pIC50 for CN1CCN(C(=O)C2CCN(Cc3ccc(C(=O)NN(c4nc(C#N)nc5c4ncn5C)C4CCCCC4)cc3)CC2)CC1 [Example 10, trifluoroacetate] ?
7.82 to 8.60

* * *

Can you tell me IC50 for the items I'm about to list?
Biological target: Falcipain-3 (Plasmodium falciparum)
Sequence (Q8IIL0 243-492): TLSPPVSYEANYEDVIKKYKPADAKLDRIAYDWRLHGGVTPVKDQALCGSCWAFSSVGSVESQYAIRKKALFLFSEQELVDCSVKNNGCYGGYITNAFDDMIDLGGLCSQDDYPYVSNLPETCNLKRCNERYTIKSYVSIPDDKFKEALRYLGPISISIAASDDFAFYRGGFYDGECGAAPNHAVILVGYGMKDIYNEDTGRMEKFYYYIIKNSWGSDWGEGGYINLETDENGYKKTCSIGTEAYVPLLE
Assay: falcipain-3 enzymatic assay (fluorogenic substrate H-D-VLR-AFC, endpoint)
Details: parasitic recombinant enzyme, pH 5.5, quenched after 60 minutes
Counter-ions that a name gives are not always drawn.

Can you share its IC50? I mean this compound: CN1CCC(CN2CCN(Cc3ccc(C(=O)NN(c4nc(C#N)nc5c4ncn5C)C4CCCCC4)cc3)CC2)CC1 [Example 9, trifluoroacetate]
0.015 to 0.15 µM

Look at this compound and give its reported IC50. CN1CCN(C(=O)C2CCN(Cc3ccc(C(=O)NN(c4nc(C#N)nc5c4ncn5C)C4CCCCC4)cc3)CC2)CC1 [Example 10, trifluoroacetate]
0.015 to 0.15 µM

Give the measured IC50 of CN(CCn1cnc2c(N(NC(=O)OC(C)(C)C)C3CCCC3)nc(C#N)nc21)C(C)(C)C [Example 43, trifluoroacetate] .
0.015 to 0.15 µM

Name the reported IC50 value associated with the compound CN(C)CCCCNC(=O)n1cnc2c(N(NC(=O)OC(C)(C)C)C3CCCC3)nc(C#N)nc21 [Example 49, trifluoroacetate]
0.015 to 0.15 µM

Consider the compound `CN1CCN(C2CCN(Cc3ccc(C(=O)NN(CC4CCCC4)c4nc(C#N)nc5c4ncn5C)cc3)CC2)CC1` and give its measured IC50.
0.015 to 0.15 µM

Please report the recorded IC50 for CN1CCN(Cc2cccc(C(=O)NN(c3nc(C#N)nc4c3ncn4C)C3CCCC3)n2)CC1 [Example 26, trifluoroacetate] .
0.15 to 0.25 µM

Which IC50 value belongs to CN1CCN(Cc2ccc(C(=O)NN(c3nc(C#N)nc4c3ncn4C(=O)N3CCN(C)CC3)C3CCCCC3)cc2)CC1 [Example 38, trifluoroacetate] ?
0.0025 to 0.015 µM

Param item = CN(C)CCn1cnc2c(N(NC(=O)c3cccc(-c4ccc(CN5CCN(C)CC5)cc4)n3)C3CCCC3)nc(C#N)nc21 [Example 42, trifluoroacetate] ; retrieve measured IC50.
0.015 to 0.15 µM

Look at this compound and give its reported IC50. CN1CCN(c2ccc(C(=O)NN(c3nc(C#N)nc4c3ncn4C)C3CCCC3)cc2)CC1 [Example 32, trifluoroacetate]
0.015 to 0.15 µM

Consider the compound shown here: CN(C)CCCN(C(=O)OC(C)(C)C)N(CC1CCCC1)c1nc(C#N)nc2c1ncn2CCCN(C)C [Example 16, trifluoroacetate] What is its recorded IC50?
0.15 to 0.25 µM

Look at this compound and give its reported IC50. CN(C)CCn1cnc2c(N(CC3CCCC3)NC(=O)OC(C)(C)C)nc(C#N)nc21 [Example 13, trifluoroacetate]
0.015 to 0.15 µM

Give the measured IC50 of CN(C)CCn1cnc2c(N(NC(=O)c3ccc(CN4CCN(C)CC4)cc3)C3CCCCC3)nc(C#N)nc21 [Example 44, trifluoroacetate] .
0.015 to 0.15 µM

Please give the measured IC50 for this compound: CN(C)CCn1cnc2c(N(CC3CCCC3)NC(=O)c3ccc(CN4CCN(C)CC4)cc3)nc(C#N)nc21 [Example 14, trifluoroacetate]
0.015 to 0.15 µM

What value of measured IC50 is listed for CN1CCN(c2cccc(C(=O)NN(c3nc(C#N)nc4c3ncn4C)C3CCCC3)c2)CC1 [Example 33, trifluoroacetate] ?
0.015 to 0.15 µM

Which IC50 reading was recorded for the compound CN1CCC(CN2CCN(Cc3ccc(C(=O)NN(c4nc(C#N)nc5c4ncn5C)C4CCCC4)cc3)CC2)CC1 [Example 5, trifluoroacetate] ?
0.25 to 0.4 µM

IC50 lookup needed for CN(C)CCCn1cnc2c(N(NC(=O)c3cccc(-c4ccc(CN5CCN(C)CC5)cc4)n3)C3CCCCC3)nc(C#N)nc21 [Example 46, trifluoroacetate] , thanks.
0.015 to 0.15 µM

Report IC50 for `CC(=O)N1CCC(N(NC(=O)OC(C)(C)C)c2nc(C#N)nc3c2ncn3C)CC1` please.
0.15 to 0.25 µM

Look at this compound and give its reported IC50. CN1CCN(Cc2ccc(-c3cccc(C(=O)NN(c4nc(C#N)nc5c4ncn5C)C4CCCC4)n3)cc2)CC1 [Example 28, trifluoroacetate]
0.015 to 0.15 µM

Which measured IC50 value corresponds to `CN1CCN(C(=O)n2cnc3c(N(NC(=O)OC(C)(C)C)C4CCCC4)nc(C#N)nc32)CC1` ?
0.0025 to 0.015 µM

Record request: IC50 value, item CN1CCN(Cc2ccc(C(=O)NN(c3nc(C#N)nc4[nH]cnc34)C3CCCCC3)cc2)CC1 [Example 30, trifluoroacetate]
0.015 to 0.15 µM

Recorded IC50 of `CN1CCN(C2CCN(Cc3ccc(C(=O)NN(c4nc(C#N)nc5c4ncn5C)C4CCCC4)cc3)CC2)CC1` , please.
0.15 to 0.25 µM

Which value of IC50 has been reported for CN(C)CCn1cnc2c(N(NC(=O)c3ccc(CN4CCN(C)CC4)cc3)C3CCCC3)nc(C#N)nc21 [Example 40, trifluoroacetate] in the records?
0.25 to 0.4 µM

Tell me the measured IC50 of CN(C)CCCn1cnc2c(N(NC(=O)c3ccc(CN4CCN(C)CC4)cc3)C3CCCCC3)nc(C#N)nc21 [Example 31, trifluoroacetate] , please.
0.015 to 0.15 µM

Consider the compound `CC(C)CN(NC(=O)c1ccc(CN2CCN(C)CC2)cc1)c1nc(C#N)nc2c1ncn2C` and give its measured IC50.
0.25 to 0.4 µM

Please look up its IC50: CN1CCC(CN2CCN(Cc3ccc(C(=O)NN(CC4CCCC4)c4nc(C#N)nc5c4ncn5C)cc3)CC2)CC1 [Example 2, trifluoroacetate]
0.015 to 0.15 µM
